target: SLC26A11^ΔC (SLC26A11(ΔC)) (Homo sapiens, UniProt Q86WA9, E320Q)
Construct: C-terminal disordered 23 residues deleted (MD model residues 26-583); N-glycosylated at Asn-294; homodimer; DDM micelles (DSF), SoyPC/BMP proteoliposomes (transport), MSP1-E3D1 nanodiscs (cryo-EM)
Sequence (Q86WA9 1-583 E320Q): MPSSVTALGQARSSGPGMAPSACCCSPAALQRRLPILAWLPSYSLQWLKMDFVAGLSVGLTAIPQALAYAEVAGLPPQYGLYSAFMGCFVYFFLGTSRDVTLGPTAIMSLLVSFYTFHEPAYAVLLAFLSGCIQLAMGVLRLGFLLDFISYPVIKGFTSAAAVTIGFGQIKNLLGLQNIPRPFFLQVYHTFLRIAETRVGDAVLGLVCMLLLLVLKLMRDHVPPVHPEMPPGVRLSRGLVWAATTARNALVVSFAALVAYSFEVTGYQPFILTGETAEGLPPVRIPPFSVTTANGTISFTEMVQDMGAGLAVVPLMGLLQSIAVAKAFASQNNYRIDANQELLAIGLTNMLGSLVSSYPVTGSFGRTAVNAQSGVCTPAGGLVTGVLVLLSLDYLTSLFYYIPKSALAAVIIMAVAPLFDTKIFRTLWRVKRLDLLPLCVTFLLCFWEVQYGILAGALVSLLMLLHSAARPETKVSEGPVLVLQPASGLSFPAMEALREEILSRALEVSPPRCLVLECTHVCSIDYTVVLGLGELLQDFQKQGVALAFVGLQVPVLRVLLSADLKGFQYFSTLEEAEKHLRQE
test: differential scanning fluorimetry (nanoDSF), anion titration
propertyMeasured: Kd

Cl [chloride] : 8.8 mM

Problem: Any idea what its Kd is? The compound is O=S(=O)(O)O [sulfate]
Result: 0.019 mM
